Species on record: Rattus norvegicus
Assay: DrugMatrix - Regimen: Daily Repeat
Format: toxicity, organism-based, Sprague-Dawley
Design: regimen Daily Repeat, gender Male, age 6-8 weeks
Conditions: in vivo, po, 0 mg/kg, 120 h, tissue Blood, route oral GAVAGE, dose level Control, time 5 day, vehicle 100 % WATER

# MOLECULE, HEMATOCRIT / %
data = [
    ("CCN(CC)CC#CCOC(=O)C(O)(c1ccccc1)C1CCCCC1 (configuration not stated)", 35.55),
    ("CC[C@H]1OC(=O)[C@H](C)[C@@H](O[C@H]2C[C@@](C)(OC)[C@@H](O)[C@H](C)O2)[C@H](C)[C@@H](O[C@@H]2O[C@H](C)C[C@H](N(C)C)[C@H]2O)[C@](C)(O)C[C@@H](C)CN(C)[C@H](C)[C@@H](O)[C@]1(C)O", 36.17),
    ("Cc1c(N(C)CS(=O)(=O)[O-])c(=O)n(-c2ccccc2)n1C.[Na+] [DIPYRONE SODIUM]", 35.17),
    ("OCCO", 34.63),
    ("Nc1ccc(S(=O)(=O)Nc2ncccn2)cc1", 36.48),
    ("CC(C)(C)NC[C@H](O)COc1nsnc1N1CCOCC1", 34.72),
    ("CC[C@H]1OC(=O)[C@H](C)[C@@H](O[C@H]2C[C@@](C)(OC)[C@@H](O)[C@H](C)O2)[C@H](C)[C@@H](O[C@@H]2O[C@H](C)C[C@H](N(C)C)[C@H]2O)[C@](C)(OC)C[C@@H](C)C(=O)[C@H](C)[C@@H](O)[C@]1(C)O", 33.83),
]

Hello, the source for this data is ChEMBL document CHEMBL3885881, in case you need it.
